- method: qHTS assay for identifying genotoxic compounds that show differential cytotoxicity against isogenic chicken DT40 cell lines with known DNA damage response pathways - Rad54/Ku70 mutant cell line (AID 743015); also: nearly all actives have a fitted effect of over 60% in size
- reportedConditions: DT40 Rad54/Ku70 mutant viability, CellTiter-Glo, 40 h; series mostly up to 66.8 µM
Records with an inconclusive call do not appear. Activity calls are given as the source filed them. Calls follow the shape of the dose curve; as a rule, active = well fitted cell-killing curve with a large enough effect in the repeat runs; inconclusive = weak or mixed curves; inactive = no such curve, though single readings can be large or run the other way.
Outcomes you can answer with include only these: y (active), n (inactive)

compound	classLabel
CC(Oc1ccc(Oc2ncc(C(F)(F)F)cc2Cl)cc1)C(=O)O (stereo not drawn)	y
ClCC(Cl)Cl	n
Nc1ccccc1Cl	n
NC(=S)C(N)=S	n
CCOc1nc(C(Cl)(Cl)Cl)ns1	n
CCOP(=S)(OCC)Oc1cc(-c2ccccc2)on1	y
Nc1cc(Cl)ccc1O	y
BrCCCCCCBr	n

Q) // outcome(item) with item = CC(=O)Nc1cc([As](=O)(O)O)ccc1O
A) n

Q) // outcome(item) with item = CC1(C)C(=O)NC(=O)NC1=O
A) n

Q) // outcome(item) with item = CN(C)CCc1ccc(O)cc1
A) n

Q) // outcome(item) with item = Cc1ncsc1CCCl
A) n

Q) // outcome(item) with item = C[C@]12CC[C@H]3[C@@H](CC=C4C[C@@H](O)CC[C@@]43C)[C@@H]1CC[C@@H]2O
A) y

Q) // outcome(item) with item = CCC(C)n1c(=O)[nH]c(C)c(Br)c1=O (stereo not drawn)
A) n

Q) // outcome(item) with item = ClCCOCOCCCl
A) n

Q) // outcome(item) with item = COC(=O)COc1ccc(Cl)cc1Cl
A) n

Q) // outcome(item) with item = CCCCc1ccc(O)cc1
A) n

Q) // outcome(item) with item = COc1cc(OC)nc(Sc2cccc(Cl)c2C(=O)O)n1
A) n

Cited source for all entries: PubChem BioAssay (Tox21)
